Each entry below lists one item and its recorded surviving fraction value.
test system: E34 (patient-derived glioblastoma stem cells of proneural subtype); assay: surviving fraction (nuclei count normalised to DMSO); higher = more cells surviving (less toxic); details: 111.1 nM; exposure time: 72 h;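 note: nuclei counted by high-content imaging of Hoechst-stained cells in laminin-coated 384-well plates, relative to 0.1% DMSO vehicle wells, with staurosporine as cell-death control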
Where a name gives a salt, the structure may show the parent alone.
measured_parameter: surviving fraction

>  <compound>
Oc1ccc(OCc2ccccc2)cc1 [Monobenzone]

>  <recorded_value>
1.13

$$$$
>  <compound>
N=C(NCCCCCCNC(=N)NC(=N)Nc1ccc(Cl)cc1)NC(=N)Nc1ccc(Cl)cc1 [Chlorhexidine]

>  <recorded_value>
0.752

$$$$
>  <compound>
CC(=O)O[C@H]1C[C@H](O[C@H]2[C@@H](O)C[C@H](O[C@H]3[C@@H](O)C[C@H](O[C@H]4CC[C@@]5(C)[C@H](CC[C@@H]6[C@@H]5C[C@@H](O)[C@]5(C)[C@@H](C7=CC(=O)OC7)CC[C@]65O)C4)O[C@@H]3C)O[C@@H]2C)O[C@H](C)[C@H]1O[C@@H]1O[C@H](CO)[C@@H](O)[C@H](O)[C@H]1O [Lanatoside C]

>  <recorded_value>
0.56

$$$$
>  <compound>
Cc1c(-c2ccc(-c3ccccc3F)cc2)nc2ccc(F)cc2c1C(=O)O [Brequinar sodium salt hydrate]

>  <recorded_value>
1.01

$$$$
>  <compound>
CC(C)(C)C1CCN(C(=O)n2ncc(C(O)(c3ccccc3)c3ccccc3)n2)CC1 [ML211]

>  <recorded_value>
0.868

$$$$
>  <compound>
CCn1cc(-c2ccnc3[nH]c(-c4cccc(CN(C)C)c4)cc23)c(-c2ccc(NC(=O)N(C)C)cc2)n1

>  <recorded_value>
0.815

$$$$
>  <compound>
COc1cc([C@@H]2c3cc4c(cc3[C@H](O)[C@H]3COC(=O)[C@H]23)OCO4)cc(OC)c1OC [Podophyllotoxin]

>  <recorded_value>
0.339

$$$$
>  <compound>
COC(=O)Nc1nc2cc(Sc3ccccc3)ccc2[nH]1 [Fenbendazole]

>  <recorded_value>
1.01

$$$$
>  <compound>
CN1C(=O)CC(c2ccccc2)C1=O (stereo not given) [Phensuximide]

>  <recorded_value>
0.81

$$$$
>  <compound>
CN(C)C(=O)Oc1ccc[n+](C)c1 [Pyridostigmine iodide]

>  <recorded_value>
0.914

$$$$
>  <compound>
CCCCCCCCCCCCCCCC[N+](C)(C)CCN(Cc1ccc(OC)cc1)c1ncccn1 [Thonzonium bromide]

>  <recorded_value>
0.965

$$$$
>  <compound>
CN[C@@H]1[C@@H](O)[C@@H](O[C@@H]2[C@@H](O)[C@H](O[C@H]3OC(CN)=CC[C@H]3N)[C@@H](N)C[C@H]2N)OC[C@]1(C)O [Sisomicin sulfate]

>  <recorded_value>
0.957

$$$$
>  <compound>
O=C1CCc2cc(OCCCCc3nnnn3C3CCCCC3)ccc2N1 [Cilostazol]

>  <recorded_value>
0.937

$$$$
>  <compound>
C#C[C@]1(O)CC[C@H]2[C@@H]3CCc4cc(OC5CCCC5)ccc4[C@H]3CC[C@@]21C [Quinestrol]

>  <recorded_value>
1.07

$$$$
>  <compound>
Nc1ccn([C@H]2CC[C@@H](CO)O2)c(=O)n1 [Zalcitabine]

>  <recorded_value>
0.887

$$$$
>  <compound>
COc1cc(NS(C)(=O)=O)ccc1Nc1c2ccccc2nc2ccccc12 [Amsacrine]

>  <recorded_value>
0.552

$$$$
>  <compound>
CCOC(=O)OC(C)OC1=C(C(=O)Nc2ccccn2)N(C)S(=O)(=O)c2ccccc21 (stereo not given) [Ampiroxicam]

>  <recorded_value>
1.1

$$$$
>  <compound>
Nc1ccc(-c2ccc3ncc4ccc(=O)n(-c5cccc(C(F)(F)F)c5)c4c3c2)cn1 [Torin2]

>  <recorded_value>
0.796

$$$$
>  <compound>
CCN(CC)Cc1ccc(C(=O)N(CCc2ccccc2OC)[C@@H]2CCNC2)cc1

>  <recorded_value>
1.12

$$$$
>  <compound>
CC(C)C[C@@H](C(=O)N[C@H](C(=O)OC1CCCC1)c1ccccc1)[C@H](O)C(=O)NO [Tosedostat]

>  <recorded_value>
0.842

$$$$
>  <compound>
OCCN1CCN(CCCN2c3ccccc3Sc3ccc(C(F)(F)F)cc32)CC1 [Fluphenazine dihydrochloride]

>  <recorded_value>
0.993

$$$$
>  <compound>
CC(C)N1CCN(c2ccc(OCC3COC(Cn4cncn4)(c4ccc(Cl)cc4Cl)O3)cc2)CC1 (stereo not given) [Terconazole]

>  <recorded_value>
1.04

$$$$
>  <compound>
CN[C@@H](C)C(=O)N[C@H](C(=O)N1CCC[C@H]1C(=O)N[C@H]1c2ccccc2C[C@H]1OCC#CC#CCO[C@@H]1Cc2ccccc2[C@@H]1NC(=O)[C@@H]1CCCN1C(=O)[C@@H](NC(=O)[C@H](C)NC)C1CCCCC1)C1CCCCC1 [AZD5582]

>  <recorded_value>
0.911

$$$$
>  <compound>
COc1ccc2[nH]c([S+]([O-])Cc3ncc(C)c(OC)c3C)nc2c1 (stereo not given) [Omeprazole]

>  <recorded_value>
0.869

$$$$
>  <compound>
C[C@H](Cc1cc2c(c(C(N)=O)c1)N(CCCO)CC2)NCCOc1ccccc1OCC(F)(F)F [Silodosin]

>  <recorded_value>
0.869

$$$$
>  <compound>
C[C@H](NC(=O)[C@@H](O)c1cc(F)cc(F)c1)C(=O)N[C@@H]1C(=O)N(C)c2ccccc2-c2ccccc21

>  <recorded_value>
0.907

$$$$
>  <compound>
NCc1ccccc1CC(=O)N[C@@H]1C(=O)N2C(C(=O)O)=C(CSc3nnnn3CC(=O)O)CS[C@H]12 [Ceforanide]

>  <recorded_value>
0.873

$$$$
>  <compound>
O=C(/C=C\n1cnc(-c2cc(C(F)(F)F)cc(C(F)(F)F)c2)n1)NNc1cnccn1 [Selinexor]

>  <recorded_value>
0.547

$$$$
>  <compound>
OCCN1CCN(CCCN2c3ccccc3Sc3ccc(Cl)cc32)CC1 [Perphenazine]

>  <recorded_value>
1.05

$$$$
>  <compound>
O=c1[nH]c(=O)n([C@H]2C[C@H](O)[C@@H](CO)O2)cc1I [Idoxuridine]

>  <recorded_value>
0.92

$$$$
